We begin with a simple list: items and their reported T/C.
- Test system: CD2F1 mice, L1210 leukemia ip, survival T/C
- procedure-summary: NCI In Vivo Anticancer Drug Screen. Data for tumor model L1210 Leukemia (intraperitoneal) in CD2F1 (CDF1) mice
- assay-conditions: endpoint: median survival time; dose: 12.5 mg/kg/injection; schedule: Q01DX005 (ip); vehicle: saline with Tween-80; higher = longer survival
Toxic doses and inconclusive results are not listed.

Use the examples below as a reference point.
>  <compound>
CC(=O)C[n+]1ccccc1Sc1ccc(Cl)cc1

>  <measure>
T/C

>  <meas-value>
100 % of control

$$$$
>  <compound>
CS(=O)(=O)OCC1OC(n2ccc(NC(=O)c3ccccc3)nc2=O)CC1OS(C)(=O)=O (stereo unspecified)

>  <measure>
T/C

>  <meas-value>
108 % of control

$$$$
>  <compound>
N#Cc1nn(C2OC(COC(=O)c3ccccc3)C(OC(=O)c3ccccc3)C2OC(=O)c2ccccc2)c2nc[nH]c(=O)c12 (stereo unspecified)

>  <measure>
T/C

>  <meas-value>
107 % of control

$$$$
>  <compound>
COc1ccc2c(c1)n([O-])c1ccccc1[n+]2=O

>  <measure>
T/C

>  <meas-value>
116 % of control

$$$$
>  <compound>
CC(C)(C)SC1C(O)C(CO)OC1n1ccc(Nc2ccccc2)nc1=O (stereo unspecified)

>  <measure>
T/C

>  <meas-value>
99 % of control

$$$$

# next compound below
Tell me measured T/C for O=c1cc(CCl)n2cnc3c(ncn3C3OC(CO)C(O)C3O)c2n1 (stereo unspecified) please.
103 % of control

====

- System: CD2F1 mice, L1210 leukemia ip, survival T/C
- procedure-summary: NCI In Vivo Anticancer Drug Screen. Data for tumor model L1210 Leukemia (intraperitoneal) in CD2F1 (CDF1) mice
- assay-conditions: endpoint: mean survival time; dose: 400.0 mg/kg/injection; schedule: Q04DX003 (ip); vehicle: saline with Tween-80; higher = longer survival
Toxic doses and inconclusive results are not listed.
Listed here: items and their measured T/C.

>  <molecule>
CC1(C)C(CC(=O)O)CC1C(=O)O (configuration not stated)

>  <assay-target>
CD2F1 mice, L1210 leukemia ip, survival T/C

>  <meas-value>
100 % of control

$$$$
>  <molecule>
O=C(c1ccccc1)c1c[nH]c2ccccc12

>  <assay-target>
CD2F1 mice, L1210 leukemia ip, survival T/C

>  <meas-value>
90 % of control

$$$$
>  <molecule>
CCCC(=O)Oc1ccc(/C=N/NC(N)=S)nc1

>  <assay-target>
CD2F1 mice, L1210 leukemia ip, survival T/C

>  <meas-value>
117 % of control

$$$$

Given CCOC(=O)c1sc(N)c(C(=O)OCC)c1C , respond with its T/C.
101 % of control

Consider the molecule N#CCc1c(Cl)c(Cl)c(Cl)c(Cl)c1Cl and give its recorded T/C.
102 % of control

In one line, give reported T/C of the entry Cc1ccc(C2(O)c3ccccc3C(=O)N2c2ccccc2C)cc1 (configuration not stated) .
106 % of control

Answer with reported T/C of Oc1ccc2ccccc2c1Cl
108 % of control

====

- System: CD2F1 mice, L1210 leukemia ip, survival T/C
- procedure-summary: NCI In Vivo Anticancer Drug Screen. Data for tumor model L1210 Leukemia (intraperitoneal) in CD2F1 (CDF1) mice
- assay-conditions: endpoint: mean survival time; dose: 12.5 mg/kg/injection; schedule: Q01DX009 (ip); vehicle: Klucel (hydroxypropylcellulose) (HPC); higher = longer survival
Toxic doses and inconclusive results are not listed.
T/C values for the compounds below.

The cases that follow already have their T/C on record.
>  <compound>
Cc1c(O)c2c(c(O)c1Cc1ccc(C#N)cc1)C(=O)c1ccccc1C2=O

>  <assay-target>
CD2F1 mice, L1210 leukemia ip, survival T/C

>  <T/C>
91 % of control

$$$$
>  <compound>
C=C1C(=O)OC2CC1C(OC(=O)/C=C/c1ccccc1)C/C(C)=C/CC/C(C)=C/CCC2(C)O (centres undefined)

>  <assay-target>
CD2F1 mice, L1210 leukemia ip, survival T/C

>  <T/C>
96 % of control

$$$$
>  <compound>
CCOC(=O)C1CC(c2ccccc2)=NN1c1ccccc1 (centres undefined)

>  <assay-target>
CD2F1 mice, L1210 leukemia ip, survival T/C

>  <T/C>
95 % of control

$$$$

Pending compound:
Quick one: give measured T/C for O=S(=O)([O][Hg][CH2]C1Cc2ccccc2O1)[O][Hg][CH2]C1Cc2ccccc2O1 (centres undefined)
92 % of control

====

Form field: T/C (one value per entry).
- Test system: CD2F1 mice, L1210 leukemia ip, survival T/C
- procedure-summary: NCI In Vivo Anticancer Drug Screen. Data for tumor model L1210 Leukemia (intraperitoneal) in CD2F1 (CDF1) mice
- assay-conditions: endpoint: mean survival time; dose: 200.0 mg/kg/injection; schedule: Q01DX001 (ip); vehicle: carboxymethylcellulose (CMC); higher = longer survival
Toxic doses and inconclusive results are not listed.

Look over these answered cases.
>  <compound>
NC(CC(=O)c1cccc2oc3cc(=O)c4[nH]c(C(=O)O)cc(=O)c4c-3nc12)C(=O)O (centres undefined)

>  <T/C>
95 % of control

$$$$
>  <compound>
CCN(CC)c1ncnc2nncnc12

>  <T/C>
96 % of control

$$$$
>  <compound>
C=CCSc1ccccn1

>  <T/C>
88 % of control

$$$$

Now let's try a different one.
Output measured T/C for this item: COC(=O)c1cccc2c1/C(=N/NC(N)=S)c1ccccc1-2
102 % of control

====

# T/C per entry
- Test system: CD2F1 mice, L1210 leukemia ip, survival T/C
- procedure-summary: NCI In Vivo Anticancer Drug Screen. Data for tumor model L1210 Leukemia (intraperitoneal) in CD2F1 (CDF1) mice
- assay-conditions: endpoint: mean survival time; dose: 25.0 mg/kg/injection; schedule: Q01DX009 (ip); vehicle: Klucel (hydroxypropylcellulose) (HPC); higher = longer survival
Toxic doses and inconclusive results are not listed.

>  <molecule>
CSC(=C[N+](=O)[O-])SC

>  <assay-target>
CD2F1 mice, L1210 leukemia ip, survival T/C

>  <T/C>
97 % of control

$$$$
>  <molecule>
Cc1c(O)c2c(c(O)c1Cc1ccc(C#N)cc1)C(=O)c1ccccc1C2=O

>  <assay-target>
CD2F1 mice, L1210 leukemia ip, survival T/C

>  <T/C>
96 % of control

$$$$
>  <molecule>
COc1cc(OC)c(OC)cc1/C=C\c1ccnc2ccccc12

>  <assay-target>
CD2F1 mice, L1210 leukemia ip, survival T/C

>  <T/C>
95 % of control

$$$$
>  <molecule>
C[n+]1c(-c2cccc(-c3ccccc3)c2)c2cc([N+](=O)[O-])ccc2c2ccccc21

>  <assay-target>
CD2F1 mice, L1210 leukemia ip, survival T/C

>  <T/C>
96 % of control

$$$$
>  <molecule>
OC1CCCC2CCCNC12 (stereo not drawn)

>  <assay-target>
CD2F1 mice, L1210 leukemia ip, survival T/C

>  <T/C>
107 % of control

$$$$

Enter measured T/C, system CD2F1 mice, L1210 leukemia ip, survival T/C, for the molecule shown: COc1ccc2nc3c4ccccc4scc-3c2c1
109 % of control

Enter T/C (test system CD2F1 mice, L1210 leukemia ip, survival T/C) for CCCCCC(C[N+](C)(C)C)C(=O)/C=C/c1ccc(Cl)cc1 (stereo not drawn)
96 % of control

Please report T/C with CD2F1 mice, L1210 leukemia ip, survival T/C for item CCOC(=O)c1cnc2c(ccc3ncccc32)c1NCCCN(CC)CC .
97 % of control

====

- Test system: CD2F1 mice, L1210 leukemia ip, survival T/C
- procedure-summary: NCI In Vivo Anticancer Drug Screen. Data for tumor model L1210 Leukemia (intraperitoneal) in CD2F1 (CDF1) mice
- assay-conditions: endpoint: mean survival time; dose: 50.0 mg/kg/injection; schedule: Q01DX009 (ip); vehicle: saline with Tween-80; higher = longer survival
Inconclusive results and toxic doses are left out.
measure: T/C

>  <compound>
COc1cc(OC)c(NC(=O)Nc2cc(C)on2)cc1Cl

>  <T/C>
95 % of control

$$$$
>  <compound>
N#[N+]c1c(C(=O)O)[nH]c(=O)[nH]c1=O

>  <T/C>
96 % of control

$$$$
>  <compound>
O=C(C(=Nc1ccccc1)c1ccccc1)c1ccccc1

>  <T/C>
100 % of control

$$$$

Name the recorded T/C of the item CCOC(=O)c1ccc(Nc2nnc(-c3c(OC)cc(OC)cc3OC)s2)cc1 in your answer.
88 % of control

Provide one value: measured T/C of CCC1=C(C)C(=O)Nc2c3ncnc-3ncn2C1O (stereo not drawn)
104 % of control

Supply T/C value. Item: CC(=O)OC1CCCCC1OC(C)=O (stereo not drawn)
92 % of control

Please look at this compound and report its T/C: CC(=O)Nc1ncc2nc(C)c(C)nc2n1
98 % of control

Using the record for CCCC1=CC(C)(C)CC(C)=C1 (tested in a mixture with another compound) , state its measured T/C.
98 % of control

Answer with reported T/C of CCNc1nc(NC(C)C)nc(OC)n1
98 % of control
